Reference source for all entries: patent US7217710B2

Item-by-item account of pIC50
target: TIE2 intracellular domain/c-fms extracellular domain (TIE2/c-fms) chimeric protein (Homo sapiens)
Construct: fused on or other part: c-fms (CSF1R) extracellular domain in place of TIE2's own ectodomain; it serves as the capture handle for the anti-c-fms ELISA; P07333 (Macrophage colony-stimulating factor 1 receptor)
Sequence (Q02763 whole entry, change not shown, the tested form may be a part): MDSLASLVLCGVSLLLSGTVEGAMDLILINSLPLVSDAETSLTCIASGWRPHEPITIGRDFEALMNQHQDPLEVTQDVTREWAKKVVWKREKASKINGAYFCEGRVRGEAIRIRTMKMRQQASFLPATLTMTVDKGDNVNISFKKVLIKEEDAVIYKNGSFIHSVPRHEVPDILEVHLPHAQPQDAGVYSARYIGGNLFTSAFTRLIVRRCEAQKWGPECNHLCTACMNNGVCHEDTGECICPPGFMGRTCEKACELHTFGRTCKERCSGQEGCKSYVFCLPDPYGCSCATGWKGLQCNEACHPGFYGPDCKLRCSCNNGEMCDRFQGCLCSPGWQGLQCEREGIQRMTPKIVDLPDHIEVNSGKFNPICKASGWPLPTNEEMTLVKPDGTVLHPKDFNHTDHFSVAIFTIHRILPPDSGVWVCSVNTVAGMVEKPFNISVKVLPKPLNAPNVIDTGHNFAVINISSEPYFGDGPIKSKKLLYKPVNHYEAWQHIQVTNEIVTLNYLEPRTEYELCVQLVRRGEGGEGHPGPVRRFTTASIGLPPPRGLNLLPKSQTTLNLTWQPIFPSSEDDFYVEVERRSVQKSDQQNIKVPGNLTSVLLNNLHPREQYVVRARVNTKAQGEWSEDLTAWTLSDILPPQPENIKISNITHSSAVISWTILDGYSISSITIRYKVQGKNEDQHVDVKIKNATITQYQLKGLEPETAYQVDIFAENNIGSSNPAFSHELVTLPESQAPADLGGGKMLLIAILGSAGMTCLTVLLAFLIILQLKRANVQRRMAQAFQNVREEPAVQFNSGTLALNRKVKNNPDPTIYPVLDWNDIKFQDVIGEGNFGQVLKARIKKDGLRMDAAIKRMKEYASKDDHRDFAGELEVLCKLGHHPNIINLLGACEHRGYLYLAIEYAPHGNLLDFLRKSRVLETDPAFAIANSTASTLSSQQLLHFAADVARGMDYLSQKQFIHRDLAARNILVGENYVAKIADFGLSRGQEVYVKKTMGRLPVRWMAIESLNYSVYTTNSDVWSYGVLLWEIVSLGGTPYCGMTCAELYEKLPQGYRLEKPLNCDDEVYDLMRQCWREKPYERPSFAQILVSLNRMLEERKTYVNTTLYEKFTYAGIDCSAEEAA
test.protocol: TIE-2 Autophosphorylation Assay (TIE2-C)
conditions.used: TIE2/c-fms expressing mouse 3T3 cells
pIC50: −log10 of the molar value.

> print(dat)
                                   molecule  recorded.result
1  Cn1nc(-c2ccc(NC(=O)Nc3cc(C(F)(F)F)ccc3F)cc2)c2cnc(NCCCO)nc21           > 7.00
2  Cn1cncc1CCNc1ncc2c(-c3ccc(NC(=O)Nc4cc(C(F)(F)F)ccc4F)cc3)nn(C)c2n1           ≤ 6.52
3  CCN(CC)CCCNc1ncc2c(-c3ccc(NC(=O)Nc4cc(C(C)(C)C)on4)c(F)c3)nn(C)c2n1           ≤ 6.52
4  CN1CCCC1CCNc1ncc2c(-c3ccc(NC(=O)Nc4cc(C(F)(F)F)ccc4F)cc3)nn(C)c2n1 (stereo not drawn)           ≤ 6.52
5  Cn1nc(-c2ccc(NC(=O)Nc3cc(C(F)(F)F)ccc3F)cc2)c2cnc(NCCCCO)nc21     6.52 to 7.00

Proceed to the following item.
q: Can you look up the measured pIC50 of "Cn1nc(-c2ccc(NC(=O)Nc3cc(C(F)(F)F)ccc3F)cc2)c2cnc(NCCCN3CCOCC3)nc21" for me?
a: ≤ 6.52
